Measured inhibition of growth at 10 µM of individual entries
Test system: NCI-60 human cancer cell line panel (Homo sapiens)
Assay Procedure: Cytotoxicity against NCI-60 human cancer cell line panel (mean) at 10 uM
Protocol Conditions: pooled result: one value given for 8 cell lines, strains, targets or settings, read-out: GI
// units = %; emit number, no label

Some solved cases for reference:
Lab note: "COc1cc2nc3c(c(CN4CC[C@H](O)C4)c2cc1OC)Cn1c-3cc2ccccc2c1=O" gave inhibition of growth at 10 µM of 14.2

Entry "O=c1c2ccccc2cc2n1Cc1c-2nc2cc3c(cc2c1CNCCCn1ccnc1)OCCO3" — recorded inhibition of growth at 10 µM = 14.3

Next:
# inhibition of growth at 10 µM (compound: "O=c1c2ccccc2cc2n1Cc1c-2nc2cc3c(cc2c1CCl)OCCO3" ) is 10.3

---

Study System: DNA topoisomerase 1 (Homo sapiens) (UniProt P11387)
Sequence (whole entry): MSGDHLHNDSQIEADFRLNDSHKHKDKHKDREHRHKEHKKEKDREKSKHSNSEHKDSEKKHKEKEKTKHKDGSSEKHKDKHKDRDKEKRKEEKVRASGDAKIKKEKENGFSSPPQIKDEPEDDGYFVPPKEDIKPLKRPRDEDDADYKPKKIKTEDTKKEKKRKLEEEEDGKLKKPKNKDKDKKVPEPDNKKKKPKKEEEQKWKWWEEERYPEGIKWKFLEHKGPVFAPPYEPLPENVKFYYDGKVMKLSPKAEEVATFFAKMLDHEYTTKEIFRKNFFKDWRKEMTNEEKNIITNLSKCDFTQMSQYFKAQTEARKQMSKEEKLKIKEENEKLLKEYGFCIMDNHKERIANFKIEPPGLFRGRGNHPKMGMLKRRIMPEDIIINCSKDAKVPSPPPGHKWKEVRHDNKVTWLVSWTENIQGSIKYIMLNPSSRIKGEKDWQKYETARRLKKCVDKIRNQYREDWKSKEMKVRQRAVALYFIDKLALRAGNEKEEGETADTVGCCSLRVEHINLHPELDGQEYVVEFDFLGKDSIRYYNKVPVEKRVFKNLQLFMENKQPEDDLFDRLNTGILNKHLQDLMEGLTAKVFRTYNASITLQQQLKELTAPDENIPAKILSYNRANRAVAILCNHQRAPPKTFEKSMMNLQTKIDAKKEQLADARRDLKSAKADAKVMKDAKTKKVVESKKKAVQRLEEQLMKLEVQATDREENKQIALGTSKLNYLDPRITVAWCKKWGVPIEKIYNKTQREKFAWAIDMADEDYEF
Assay Procedure: Inhibition of human recombinant Top1-mediated DNA cleavage at 0.1 to 100 uM after 20 mins relative to camptothecin
Design: scale not given: the % may be the effect or the level left
The source made the active and inactive calls. The calls are words filed in the database; no cut-off is given here.
Parameter: Activity

Recorded Activity (compound "CN(C)CCCc1c2c(nc3cc4c(cc13)OCCO4)-c1cc3ccccc3c(=O)n1C2" ): 75%

For "O=c1c2ccccc2cc2n1Cc1c-2nc2cc3c(cc2c1CNCCCn1ccnc1)OCCO3" the compound record lists Activity as 50%

Consider "O=c1c2ccccc2cc2n1Cc1c-2nc2ccc(Cl)cc2c1CN1CC[C@H](O)C1" . Its measured Activity is 20%

The compound listed as "COc1cc2nc3c(c(CN4CC[C@H](O)C4)c2cc1OC)Cn1c-3cc2ccccc2c1=O" has a reported Activity of inactive

Entry under test: "O=c1c2ccccc2cc2n1Cc1c-2nc2cc3c(cc2c1CN1CC[C@H](O)C1)OCCO3" . Its Activity was 50%

Briefly, Activity measured for "CN(C)Cc1c2c(nc3cc4c(cc13)OCCO4)-c1cc3ccccc3c(=O)n1C2" : 75%

// field: Activity; key: "O=c1c2ccccc2cc2n1Cc1c-2nc2cc(Cl)ccc2c1Cn1ccnc1" ; value = 0%

Just so you know, measured Activity for "Cc1cc2c(CN3CCN(C)CC3)c3c(nc2cc1F)-c1cc2ccccc2c(=O)n1C3" came out at 50%

For "O=c1c2ccccc2cc2n1Cc1c-2nc2cccc(Cl)c2c1CN1CC[C@H](O)C1" the compound record lists Activity as 20%

// sample "O=c1c2ccccc2cc2n1Cc1c-2nc2cc3c(cc2c1CCl)OCCO3" , its Activity was 20%

Others:
// Activity lookup, compound = "COc1cc2nc3c(c(CNCCCn4ccnc4)c2cc1OC)Cn1c-3cc2ccccc2c1=O" , result: inactive

Query "O=c1c2ccccc2cc2n1Cc1c-2nc2cc(Cl)ccc2c1CNCCCn1ccnc1" yields Activity of 20%

Memo: "CN(C)Cc1c2c(nc3cc4c(cc13)OCO4)-c1cc3ccccc3c(=O)n1C2" , reported Activity: 50%

According to the records, this compound "CN1CCN(Cc2c3c(nc4cccc(Cl)c24)-c2cc4ccccc4c(=O)n2C3)CC1" displays Activity of inactive

Per the records, this compound ( "O=c1c2ccccc2cc2n1Cc1c-2nc2cc3c(cc2c1CCCNCCO)OCCO3" ) has Activity equal to 0%

Entry under test: "O=c1c2ccccc2cc2n1Cc1c-2nc2cc3c(cc2c1CCCCl)OCCO3" . Its Activity was inactive

The compound listed as "O=c1c2ccccc2cc2n1Cc1c-2nc2cc3c(cc2c1CCCn1ccnc1)OCCO3" shows Activity equal to 50%

Looking up "O=c1c2ccccc2cc2n1Cc1c-2nc2cc(Cl)ccc2c1CN1CC[C@H](O)C1" , I found its Activity recorded as 20%

Looking up "O=c1c2ccccc2cc2n1Cc1c-2nc2cc3c(cc2c1CNCCCN1CCOCC1)OCCO3" , I see its Activity listed as 50%

The values you see were collected from ChEMBL document CHEMBL1212854.
